Each recorded value in this set is attributed to PubChem BioAssay AID330.

System: P388 leukemia ip, CD2F1 mice, survival T/C
Experiment: NCI In Vivo Anticancer Drug Screen. Data for tumor model P388 Leukemia (intraperitoneal) in CD2F1 (CDF1) mice
Settings: endpoint: median survival time; dose: 200.0 mg/kg/injection; schedule: Q04DX003 (ip); vehicle: saline with Tween-80
Toxic doses and inconclusive results are not listed. The calls were made as follows: active = survival T/C of 150% or more; inactive = T/C below 125% in these data.
In this exercise, the only acceptable responses are active, inactive

The examples below pair each entry with its known result.
- COC(=O)C1CC(c2ccccc2)N(c2ccccc2)O1 (stereo not given) (tested in a mixture with another compound): inactive
- CC(=O)CCC(=O)OC(C)(C)CN: inactive
- C=CCCCn1nnc2ccccc21: inactive
- CC(=O)C1=C(c2ccc([N+](=O)[O-])cc2)NC(=O)NC1c1ccco1 (stereo not given): inactive
- CCOC(OCC)c1ccc(Cl)cc1: inactive

## Task Would you mind telling me which call this test gave CC1(C)OC2C(CO)OC(n3ncc(=S)[nH]c3=O)C2O1 (stereo not given) ?
## Result inactive

## Task Further, for CN1C(=O)C2SC(=NNc3ccccc3)SC1C(=O)N2C ?
## Result inactive

## Task Further, for Cc1cc(=O)[nH]c(N/N=C/c2ccccc2O)n1 ?
## Result inactive

====

Test system: P388 leukemia ip, CD2F1 mice, survival T/C
Experiment: NCI In Vivo Anticancer Drug Screen. Data for tumor model P388 Leukemia (intraperitoneal) in CD2F1 (CDF1) mice
Conditions: endpoint: median survival time; dose: 100.0 mg/kg/injection; schedule: Q01DX001 (ip); vehicle: Klucel (hydroxypropylcellulose) (HPC); higher = longer survival
Inconclusive results and toxic doses are left out.
Parameter: T/C. Scope: all listed entries.

- CN1C(=O)NC(=O)C(C)(C2(Br)CCCCC2)C1=O (stereo unspecified): 106 % of control

## Task # lookup: T/C of Cc1cccc(/C=N/N2CCN(C(c3ccccc3)c3ccccc3)CC2)n1
## Result 100 % of control

## Task Further, for O=c1[nH]c2nc3ccccc3n2nc1-c1ccccc1 ?
## Result 89 % of control

## Task Further, for Cc1[nH]c2cc(Br)ccc2c1/C=N/NC(N)=S ?
## Result 107 % of control

## Task Further, for NC(=O)CCCC(C(N)=O)c1ccccc1 (stereo unspecified) ?
## Result 100 % of control

## Task Further, for Cn1c(=O)c2c(ncn2C2C(=O)NNC2=O)n(C)c1=O ?
## Result 100 % of control

====

System: P388 leukemia ip, CD2F1 mice, survival T/C
Assay: NCI In Vivo Anticancer Drug Screen. Data for tumor model P388 Leukemia (intraperitoneal) in CD2F1 (CDF1) mice
Settings: endpoint: median survival time; dose: 50.0 mg/kg/injection; schedule: Q01DX009 (ip); vehicle: saline; higher = longer survival
Inconclusive results and toxic doses are left out.
EXPERIMENTAL_ENDPOINT: T/C

Completed entries (count: 6):
* CC1CN=C(NS(=O)(=O)c2ccccc2)N1 (configuration not stated) | 101 % of control
* O=C1c2ccccc2C(=O)N1S(=O)(=O)C/C=C/CCl | 110 % of control
* O=C(O)CC1(C(=O)O)CCC(O)CC1 (configuration not stated) | 100 % of control
* CC1=CN2CCC(=O)N=C2C=C1 | 93 % of control
* Oc1cc2c(cc1O)[C@H]1c3ccc(O)c(O)c3OC[C@@]1(O)C2 | 122 % of control
* C[N+](C)=c1ccc2nc3ccc(N)cc3sc-2c1 | 104 % of control

Could you now consider this next compound?
## Task # lookup: T/C of C(CSC1=NCCN1)CSC1=NCCN1
## Result 117 % of control
